- System: HCV replication, genotype 1a (Huh-7 HCV replicon cell)
- ASSAY_INFO: Replicon ELISA cell based assay, genotype 1a
- CONDITION_CONTEXT: Hepatitis C virus, Huh-7 HCV replicon cells, 72 hours, mean, assayed at least twice
Recorded IC50 for the following compounds
PARAMETER_MEASURED: IC50

[[record]]
chemical_string = "CC(C)N(c1cc(-c2ccc(-c3cc4ncccc4o3)nc2)sc1C(=O)O)C(=O)[C@H]1CC[C@H](C)CC1"
result = "50 to 100 nM"

[[record]]
chemical_string = "CC(C)N(c1cc(-c2ccc(-c3cn4ccccc4n3)cc2)sc1C(=O)O)C(=O)[C@H]1CC[C@H](C(F)(F)F)CC1"
result = "100 to 500 nM"

[[record]]
chemical_string = "CC(C)N(c1cc(-c2ccc(-c3cc4nccc(N)n4n3)c(Cl)c2)sc1C(=O)O)C(=O)[C@H]1CC[C@H](C)CC1"
result = "< 5 nM"

[[record]]
chemical_string = "CC(C)N(c1cc(-c2ccc(-c3nc4cccc(O)c4o3)cc2)sc1C(=O)O)C(=O)[C@H]1CC[C@H](C)CC1"
result = "100 to 500 nM"

[[record]]
chemical_string = "CC(C)N(c1cc(-c2ccc(-c3cc4ncccn4n3)s2)sc1C(=O)O)C(=O)[C@H]1CC[C@H](C)CC1"
result = "10 to 50 nM"

[[record]]
chemical_string = "CC(C)N(c1cc(-c2ccc(-c3nc4ncccc4o3)cc2)sc1C(=O)O)C(=O)[C@H]1CC[C@H](C(F)(F)F)CC1"
result = "100 to 500 nM"

[[record]]
chemical_string = "CC(C)N(c1cc(-c2ccc(-c3cc4ccc(N)cc4o3)cc2)sc1C(=O)O)C(=O)[C@H]1CC[C@H](C)CC1"
result = "100 to 500 nM"


* * *

- System: HCV replication, genotype 1b (Huh-7 HCV replicon cell, sub-line 5-15)
- ASSAY_INFO: Replicon ELISA cell based assay, genotype 1b
- CONDITION_CONTEXT: Hepatitis C virus, Huh-7 HCV replicon cells, genotype 1b (sub-line 5-15), 72 hours, mean, assayed at least twice
PARAMETER_MEASURED: IC50

[[record]]
compound = "CC(C)N(c1cc(-c2ccc(-c3cc4ncccc4o3)s2)sc1C(=O)O)C(=O)[C@H]1CC[C@H](C)CC1"
parameter_measured = "IC50"
result = "0.05 to 0.1 µM"

[[record]]
compound = "CC(C)N(c1cc(-c2ccc(-c3cc4ncccn4n3)s2)sc1C(=O)O)C(=O)[C@H]1CC[C@H](C)CC1"
parameter_measured = "IC50"
result = "0.01 to 0.05 µM"

[[record]]
compound = "CC(C)N(c1cc(-c2ccc(-c3cn4ccsc4n3)cc2)sc1C(=O)O)C(=O)[C@H]1CC[C@H](C)CC1"
parameter_measured = "IC50"
result = "0.01 to 0.05 µM"

[[record]]
compound = "CC(C)N(c1cc(-c2ccc(-c3cc4cnccc4o3)cc2)sc1C(=O)O)C(=O)[C@H]1CC[C@H](C)CC1 [Example 13]"
parameter_measured = "IC50"
result = "0.1 to 0.5 µM"


* * *

- Tested on: HCV replication, genotype 1b (Huh-7 HCV replicon cell, sub-line 5-15)
- ASSAY_INFO: Replicon ELISA cell based assay, genotype 1b
- CONDITION_CONTEXT: Hepatitis C virus, Huh-7 HCV replicon cells, genotype 1b (sub-line 5-15), 72 hours, mean, assayed at least twice
In this section we review reported IC50 values for a set of compounds.
PARAMETER_MEASURED: IC50

[[record]]
compound = "CC(C)N(c1cc(-c2ccc(-c3cc4nccc(N)n4n3)cc2)sc1C(=O)O)C(=O)[C@H]1CC[C@H](C)CC1 [Example 7]"
test_system = "HCV replication, genotype 1b (Huh-7 HCV replicon cell, sub-line 5-15)"
result = "< 5 nM"

[[record]]
compound = "CC(C)N(c1cc(-c2ccc(-c3cc4cccnn4n3)cc2)sc1C(=O)O)C(=O)[C@H]1CC[C@H](C)CC1 [Example 24]"
test_system = "HCV replication, genotype 1b (Huh-7 HCV replicon cell, sub-line 5-15)"
result = "10 to 50 nM"

[[record]]
compound = "CC(C)N(c1cc(-c2ccc(-c3ccc4nc[nH]c4c3)cc2)sc1C(=O)O)C(=O)[C@H]1CC[C@H](C)CC1 [Example 28]"
test_system = "HCV replication, genotype 1b (Huh-7 HCV replicon cell, sub-line 5-15)"
result = "100 to 500 nM"

[[record]]
compound = "CC(C)N(c1cc(-c2ccc(-c3nc4ncccc4o3)nc2)sc1C(=O)O)C(=O)[C@H]1CC[C@H](C)CC1 [Example 46]"
test_system = "HCV replication, genotype 1b (Huh-7 HCV replicon cell, sub-line 5-15)"
result = "100 to 500 nM"

[[record]]
compound = "CC(C)N(c1cc(-c2ccc(-c3nc4ccc(N)cc4o3)cc2)sc1C(=O)O)C(=O)[C@H]1CC[C@H](C)CC1 [Example 23]"
test_system = "HCV replication, genotype 1b (Huh-7 HCV replicon cell, sub-line 5-15)"
result = "10 to 50 nM"

[[record]]
compound = "CC(C)N(c1cc(-c2ccc(-c3nc4cc(N)ccc4o3)cc2)sc1C(=O)O)C(=O)[C@H]1CC[C@H](C)CC1 [Example 10]"
test_system = "HCV replication, genotype 1b (Huh-7 HCV replicon cell, sub-line 5-15)"
result = "100 to 500 nM"


Data provenance is patent US20090136448A1.
